Data origin: the supplement of paper PMC10567573

B1: CPXM2 (parent)
chain: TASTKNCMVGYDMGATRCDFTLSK

variants of: B1; test: protein stability index of a GFP-peptide fusion (GPS, HEK-293T) (PSI 1-6); higher = more stable; conditions: c terminus: a fixed tail appended;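 note: lentivirally expressed fusions sorted by FACS into six bins by GFP to DsRed ratio, PSI derived from sequencing read proportions per bin multiplied by bin number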
Recorded measurements of protein stability index, one per entry

Before answering, review these 6 worked examples.
>  <mutation notation>
Y11S

>  <protein stability index>
2.28

$$$$
>  <mutation notation>
C7N

>  <protein stability index>
3.84

$$$$
>  <mutation notation>
N6F

>  <protein stability index>
2.12

$$$$
>  <mutation notation>
V9Q

>  <protein stability index>
3.5

$$$$
>  <mutation notation>
V9F

>  <protein stability index>
1.63

$$$$
>  <mutation notation>
T16G

>  <protein stability index>
2.27

$$$$

Task item: Item "V9W" has what recorded protein stability index?
Reply: 2.09

Task item: Item "S3G" has what recorded protein stability index?
Reply: 2.47

Task item: Item "G14K" has what recorded protein stability index?
Reply: 2.76
